In this section, each of the compounds is paired with its reported EC50.
# TARGET UNDER TEST: UniProt P35228
# Sequence (P35228 whole entry): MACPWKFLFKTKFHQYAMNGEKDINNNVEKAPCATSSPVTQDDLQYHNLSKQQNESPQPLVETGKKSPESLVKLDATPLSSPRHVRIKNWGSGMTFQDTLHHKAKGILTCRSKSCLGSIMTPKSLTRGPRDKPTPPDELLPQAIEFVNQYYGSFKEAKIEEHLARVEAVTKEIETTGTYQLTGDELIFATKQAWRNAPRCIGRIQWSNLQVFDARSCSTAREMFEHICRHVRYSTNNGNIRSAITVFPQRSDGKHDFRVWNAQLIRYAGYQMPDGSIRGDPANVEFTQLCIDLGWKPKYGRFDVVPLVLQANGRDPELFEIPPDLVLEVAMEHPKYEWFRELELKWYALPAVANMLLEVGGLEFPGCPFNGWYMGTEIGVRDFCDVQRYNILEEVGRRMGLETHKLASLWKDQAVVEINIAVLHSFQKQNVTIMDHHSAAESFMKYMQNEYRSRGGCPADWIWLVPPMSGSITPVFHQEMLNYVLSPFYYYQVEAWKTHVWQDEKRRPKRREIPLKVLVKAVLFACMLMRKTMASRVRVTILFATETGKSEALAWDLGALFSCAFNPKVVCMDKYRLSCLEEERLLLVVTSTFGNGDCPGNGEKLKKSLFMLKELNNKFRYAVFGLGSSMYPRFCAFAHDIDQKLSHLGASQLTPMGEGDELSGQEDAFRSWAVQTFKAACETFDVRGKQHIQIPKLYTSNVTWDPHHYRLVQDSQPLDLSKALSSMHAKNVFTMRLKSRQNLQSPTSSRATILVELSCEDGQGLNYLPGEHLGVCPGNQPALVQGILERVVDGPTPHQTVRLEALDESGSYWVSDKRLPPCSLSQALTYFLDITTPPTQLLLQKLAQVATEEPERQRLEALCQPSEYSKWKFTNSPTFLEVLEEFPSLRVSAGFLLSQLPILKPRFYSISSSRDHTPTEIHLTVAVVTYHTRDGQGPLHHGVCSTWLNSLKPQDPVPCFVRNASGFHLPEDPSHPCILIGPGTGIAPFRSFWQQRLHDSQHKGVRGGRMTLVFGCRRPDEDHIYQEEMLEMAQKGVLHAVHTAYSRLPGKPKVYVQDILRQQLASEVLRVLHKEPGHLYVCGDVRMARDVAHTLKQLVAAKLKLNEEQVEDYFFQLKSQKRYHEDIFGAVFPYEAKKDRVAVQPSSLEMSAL
# MEASUREMENT PROTOCOL: Inhibition of human iNOS expressed in HEK293 cells assessed as NO production by transient transfection assay

Consider the reported EC50 for these compounds:
| SMILES DATA | EC50 |
| --- | --- |
| Cc1ncsc1C(=O)N(Cc1ccnc2c(F)cccc12)c1cccc(Cl)c1 | > 100 µM |
| Cc1ncsc1C(=O)N(Cc1cc(=O)n(C)c2c(F)cccc12)c1cccc(Cl)c1 | > 100 µM |

Let us examine a further case.
The compound listed as `COc1cc(CN(C(=O)c2scnc2C)c2cccc(Cl)c2)c2cccc(F)c2n1` shows EC50 equal to > 100 µM

---

# TARGET UNDER TEST: Nitric oxide synthase 1 (Homo sapiens, UniProt P29475)
# Sequence (P29475 whole entry): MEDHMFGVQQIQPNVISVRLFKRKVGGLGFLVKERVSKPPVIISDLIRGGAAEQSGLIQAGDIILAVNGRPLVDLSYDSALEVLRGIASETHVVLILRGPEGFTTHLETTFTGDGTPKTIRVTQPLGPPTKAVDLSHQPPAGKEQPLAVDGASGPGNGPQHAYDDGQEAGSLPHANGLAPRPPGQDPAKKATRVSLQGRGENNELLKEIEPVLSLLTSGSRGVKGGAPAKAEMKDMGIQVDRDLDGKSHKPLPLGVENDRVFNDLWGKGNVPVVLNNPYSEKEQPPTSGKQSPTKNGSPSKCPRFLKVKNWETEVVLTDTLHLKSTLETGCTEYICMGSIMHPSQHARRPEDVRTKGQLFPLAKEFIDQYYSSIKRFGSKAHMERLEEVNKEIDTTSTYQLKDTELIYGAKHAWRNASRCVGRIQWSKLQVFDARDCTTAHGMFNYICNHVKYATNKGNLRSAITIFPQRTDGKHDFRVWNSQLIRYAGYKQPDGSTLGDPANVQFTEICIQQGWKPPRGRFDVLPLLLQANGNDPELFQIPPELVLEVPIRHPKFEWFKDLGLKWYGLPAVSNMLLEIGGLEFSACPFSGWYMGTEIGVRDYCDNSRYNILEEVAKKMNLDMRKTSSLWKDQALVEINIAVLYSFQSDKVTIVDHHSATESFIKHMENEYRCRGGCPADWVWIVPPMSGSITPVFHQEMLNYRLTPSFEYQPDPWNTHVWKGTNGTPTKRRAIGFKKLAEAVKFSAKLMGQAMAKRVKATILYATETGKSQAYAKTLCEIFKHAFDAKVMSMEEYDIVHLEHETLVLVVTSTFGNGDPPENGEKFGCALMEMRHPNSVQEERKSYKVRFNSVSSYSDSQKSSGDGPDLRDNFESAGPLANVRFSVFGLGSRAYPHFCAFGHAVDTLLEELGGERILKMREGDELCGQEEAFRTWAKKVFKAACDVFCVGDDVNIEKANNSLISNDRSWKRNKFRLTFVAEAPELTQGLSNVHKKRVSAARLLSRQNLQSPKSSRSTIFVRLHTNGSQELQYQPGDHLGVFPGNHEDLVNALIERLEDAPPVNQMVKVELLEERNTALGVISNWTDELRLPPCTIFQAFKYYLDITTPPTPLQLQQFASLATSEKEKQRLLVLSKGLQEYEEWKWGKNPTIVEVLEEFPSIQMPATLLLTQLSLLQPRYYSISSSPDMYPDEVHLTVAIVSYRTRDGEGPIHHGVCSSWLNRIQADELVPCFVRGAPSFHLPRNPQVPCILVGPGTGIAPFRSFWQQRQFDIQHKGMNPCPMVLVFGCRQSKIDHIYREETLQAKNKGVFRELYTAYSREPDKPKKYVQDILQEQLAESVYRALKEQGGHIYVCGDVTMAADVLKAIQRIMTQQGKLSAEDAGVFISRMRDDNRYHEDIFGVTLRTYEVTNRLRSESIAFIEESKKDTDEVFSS
# MEASUREMENT PROTOCOL: Inhibition of human nNOS expressed in HEK293 cells assessed as NO production by transient transfection assay
pEC50: −log10 of the molar value.
Measured pEC50 by item

Look over these answered cases.
| SMILES DATA | pEC50 |
| --- | --- |
| Cc1ncsc1C(=O)N(Cc1cc(=O)[nH]c2c(F)cccc12)c1ccccc1Cl | < 5.00 |
| Cc1ncsc1C(=O)N(Cc1cc(=O)[nH]c2ccccc12)c1cccc(Cl)c1 | < 5.00 |

Would you kindly look at the next entry?
Assay Nitric oxide synthase 1 (Homo sapiens, UniProt P29475), sample `Cc1ncsc1C(=O)N(Cc1cc(=O)[nH]c2ccc(F)cc12)c1cccc(Cl)c1` , pEC50 read: < 5.00
